The reported measurements were obtained from patent US9138393B2.

molecular target: CYP3A4 (Homo sapiens (Human)); assay: In vitro CYP3A4 inhibition assay (P450-GLO Assay kit, Promega)
Sequence (P08684 whole entry): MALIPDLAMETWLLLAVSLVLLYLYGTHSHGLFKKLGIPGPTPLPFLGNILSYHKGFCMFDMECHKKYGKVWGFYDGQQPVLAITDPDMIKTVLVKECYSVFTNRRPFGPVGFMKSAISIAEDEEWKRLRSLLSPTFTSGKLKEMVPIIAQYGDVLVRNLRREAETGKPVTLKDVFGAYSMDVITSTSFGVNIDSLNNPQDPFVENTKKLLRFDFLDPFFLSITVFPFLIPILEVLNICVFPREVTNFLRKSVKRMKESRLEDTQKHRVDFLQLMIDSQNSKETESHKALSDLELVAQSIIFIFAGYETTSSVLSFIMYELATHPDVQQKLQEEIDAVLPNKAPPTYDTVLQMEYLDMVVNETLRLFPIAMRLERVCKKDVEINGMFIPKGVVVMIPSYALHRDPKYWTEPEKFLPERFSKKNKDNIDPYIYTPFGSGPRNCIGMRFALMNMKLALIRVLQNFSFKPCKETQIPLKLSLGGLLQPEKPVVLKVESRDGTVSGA
Parameter IC50: see the listing below.

Solved entries:
COMPOUND	TARGET UNDER TEST	IC50
CCc1cccc(C)c1N(C(=O)CCl)C(C)COC (stereo not shown)	CYP3A4 (Homo sapiens (Human))	> 10 µM
CC(=O)c1ccc(-n2ccnc2)cc1	CYP3A4 (Homo sapiens (Human))	< 10 µM
CC(C)(C(=O)c1cccnc1)c1cccnc1	CYP3A4 (Homo sapiens (Human))	< 10 µM

For the next question, use this compound.
Any idea what IC50 was measured for `c1ccc(-n2ccnc2)cc1` ?
< 10 µM
